Biological target: T1, human BCMA (human, UniProt Q02223 1-54)
T1 construct: also called huBCMA; hBCMA
T1 sequence: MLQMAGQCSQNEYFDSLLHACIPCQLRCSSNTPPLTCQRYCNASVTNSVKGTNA
Test: SPR, immobilised IgG, 25° C
Recorded T½ for the following binders
Could you give me the number in min? Just the number is fine.

L1.GDF/L3.NY/H3.AL (antibody, V domains shown, IgG in the assay) VH: EVQLLESGGGLVQPGGSLRLSCAASGFTFGSYAMTWVRQAPGKGLEWVSAISGSGGNTFYADSVKGRFTISRDNSKNTLYLQMNSLRAEDTAVYYCARVSPIAALMDYWGQGTLVTVSS VL: EIVLTQSPGTLSLSPGERATLSCRASQSVGDFYLAWYQQKPGQAPRLLIYGASSRATGIPDRFSGSGSGTDFTLTISRLEPEDFAVYYCQHYNYPPSFTFGQGTKVEIK | 2.87

Name the recorded T½ for L1.LGF/L3.NY/H3.AL (antibody, V domains shown, IgG in the assay) VH: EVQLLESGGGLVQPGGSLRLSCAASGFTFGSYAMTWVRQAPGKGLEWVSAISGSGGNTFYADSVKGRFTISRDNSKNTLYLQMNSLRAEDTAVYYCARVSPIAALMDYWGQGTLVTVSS VL: EIVLTQSPGTLSLSPGERATLSCRASQSLGSFYLAWYQQKPGQAPRLLIYGASSRATGIPDRFSGSGSGTDFTLTISRLEPEDFAVYYCQHYNYPPSFTFGQGTKVEIK .
11.9

Name the recorded T½ for L1.GDF/L3.NY/P6E01 (antibody, V domains shown, IgG in the assay) VH: EVQLLESGGGLVQPGGSLRLSCAASGFTFGSYAMTWVRQAPGKGLEWVSAISGSGGNTFYADSVKGRFTISRDNSKNTLYLQMNSLRAEDTAVYYCARVSPIASGMDYWGQGTLVTVSS VL: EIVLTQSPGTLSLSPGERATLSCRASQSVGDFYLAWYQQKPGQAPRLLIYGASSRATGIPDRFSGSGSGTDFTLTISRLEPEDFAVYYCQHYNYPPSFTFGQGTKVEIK .
1.95

Name the recorded T½ for L1.LGF/L3.NY/P6E01 (antibody, V domains shown, IgG in the assay) VH: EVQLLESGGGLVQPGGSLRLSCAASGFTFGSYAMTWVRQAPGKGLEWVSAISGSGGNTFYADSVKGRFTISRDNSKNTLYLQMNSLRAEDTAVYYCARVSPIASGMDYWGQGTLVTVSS VL: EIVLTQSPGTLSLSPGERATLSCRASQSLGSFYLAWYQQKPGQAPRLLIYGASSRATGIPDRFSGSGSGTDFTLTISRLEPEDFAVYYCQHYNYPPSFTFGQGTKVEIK .
2.63

Name the recorded T½ for L1.LGF/L3.KW/P6E01 (antibody, V domains shown, IgG in the assay) VH: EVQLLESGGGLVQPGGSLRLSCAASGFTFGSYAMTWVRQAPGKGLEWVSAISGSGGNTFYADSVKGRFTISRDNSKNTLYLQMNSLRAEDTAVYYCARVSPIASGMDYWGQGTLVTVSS VL: EIVLTQSPGTLSLSPGERATLSCRASQSLGSFYLAWYQQKPGQAPRLLIYGASSRATGIPDRFSGSGSGTDFTLTISRLEPEDFAVYYCKHYGWPPSFTFGQGTKVEIK .
1.53
